# System: CP265
# PROTOCOL: qHTS profiling for inhibitors of Plasmodium falciparum proliferation (AID 504749); note: nearly all actives have a fitted effect of over 60% in size
# ASSAY_SETUP: P. falciparum in erythrocytes, SYBR Green DNA, 72 h; series mostly up to 28.7 µM
# Procedure: NIH National Institute of Allergy and Infectious Diseases [NIAID] NIH Chemical Genomics Center [NCGC] […] Because mature erythrocytes lack DNA, only Plasmodium-derived DNA is detected. NCGC Assay Protocol Summary: The SYBR Green viability assay was adapted from a method described previously (Plouffe et al., 2008). […] The following morning, fluorescence intensity at 485(14) nm excitation and 535(25) nm emission wavelengths was measured on an EnVision (Perkin Elmer) plate reader. […]
Inconclusive results are not listed. Active and inactive are the calls of the source. Calls come from the whole dose curve; as a rule, active = well fitted inhibition curve with a large enough effect; inconclusive = small, poorly fitted or top-dose-only effect; inactive = flat fitted curve, though single readings scatter.
Respond with a class label; see active, inactive

>>> class_label("Cn1c(=O)c2[nH]c(Br)nc2n(C)c1=O")
"inactive"

Per the records of this test, what outcome belongs to O=C(c1ccc(F)cc1)C1CCN(CCn2c(=S)[nH]c3ccccc3c2=O)CC1 ?
active

Per the records of this test, what outcome belongs to Cc1cc(-c2ccccc2)nnc1NCCN1CCOCC1 ?
inactive

Per the records of this test, what outcome belongs to CC(=O)NCCCCCC(=O)O ?
inactive

Per the records of this test, what outcome belongs to O[C@@H](c1cc(C(F)(F)F)nc2c(C(F)(F)F)cccc12)[C@H]1CCCCN1 ?
active

Per the records of this test, what outcome belongs to CCCCCN=C(N)N/N=C/c1c[nH]c2ccc(OC)cc12 ?
active

Per the records of this test, what outcome belongs to COc1ccc(-c2cc(C(F)F)nn2-c2ccc(S(N)(=O)=O)cc2)cc1F ?
inactive

Per the records of this test, what outcome belongs to O=C1C(O)=C(O)C(=O)C(O)=C1O ?
inactive

Per the records of this test, what outcome belongs to O=C(Oc1cccc2cccnc12)c1ccccc1 ?
inactive

###

# Tested on: CP266
# PROTOCOL: qHTS profiling for inhibitors of Plasmodium falciparum proliferation (AID 504749); note: nearly all actives have a fitted effect of over 60% in size
# ASSAY_SETUP: P. falciparum in erythrocytes, SYBR Green DNA, 72 h; series mostly up to 28.7 µM
Inconclusive results are not listed. The source made the active and inactive calls. Calls come from the whole dose curve; as a rule, active = well fitted inhibition curve with a large enough effect; inconclusive = small, poorly fitted or top-dose-only effect; inactive = flat fitted curve, though single readings scatter.
Respond with a class label; see True for active, False for inactive

Take a look at these entries with their results.
>>> class_label("NS(=O)(=O)c1ccc(Cl)c(S(N)(=O)=O)c1")
"False"
>>> class_label("CCCCCCCCCCCCCC[N+](C)(C)Cc1ccccc1")
"True"
>>> class_label("CCCCCCCCCCCCSCCOCCO")
"False"
>>> class_label("N/C(=N\\N=C\\c1ccc(Cl)cc1)N/N=C/c1ccc(Cl)cc1")
"False"
>>> class_label("CCCCC(CC)COC(=O)/C=C/c1ccc(OC)cc1 (configuration not stated)")
"False"

Per the records of this test, what outcome belongs to C#C[C@]1(O)CC[C@H]2[C@@H]3CCc4cc(OC)ccc4[C@H]3CC[C@@]21C ?
False

Per the records of this test, what outcome belongs to CC(=O)NC(=O)c1ccccc1O ?
False

Per the records of this test, what outcome belongs to Nc1nc(-c2ccccc2)c(Br)c(=O)[nH]1 ?
False

Per the records of this test, what outcome belongs to CC(=O)Nc1ccc(S(=O)(=O)Nc2ccc([N+](=O)[O-])cc2)cc1 ?
False
